# target.under.test: UniProtKB A0A097I315
# assay.summary: biochemical
# stated.conditions: FRET assay (IC50)
Sorting guide: entries reporting IC50 beneath 700 nM go in the TRUE pile, the rest go in the FALSE pile.

Is it true that IC50 reported for [2H]C([2H])(OC(=O)N[C@@H](CC(C)C)C(=O)N[C@@H](C[C@@H]1CCNC1=O)C(O)S(=O)(=O)[O-])C(C)(C)Sc1ccccc1.[Na+] (stereo partly drawn) [Compound D2d] is less than 700 nM?
FALSE

Is it true that IC50 reported for CC(C)C[C@H](NC(=O)OCc1ccccc1)C(=O)N[C@@H](C[C@@H]1CCNC1=O)C(=O)c1ncco1 [Compound E8a] is less than 700 nM?
FALSE

Is it true that IC50 reported for CC(C)C[C@H](NC(=O)OCC(C)(C)Sc1nc2ccccc2[nH]1)C(=O)N[C@@H](C[C@@H]1CCNC1=O)C(O)S(=O)(=O)O (stereo partly drawn) [Compound D9d] is less than 700 nM?
FALSE

Is it true that IC50 reported for CC(C)C[C@H](NC(=O)OC[C@H]1[C@H](Cc2ccccc2)C1(F)F)C(=O)N[C@H](C=O)C[C@H]1CCNC1=O [Compound C4c] is less than 700 nM?
FALSE

Is it true that IC50 reported for CC(C)C[C@H](NC(=O)OCC(C)(O)c1cccc(Cl)c1)C(=O)N[C@@H](C[C@@H]1CCNC1=O)C(O)S(=O)(=O)O (stereo partly drawn) [Compound D17d] is less than 700 nM?
FALSE

Is it true that IC50 reported for CC(C)C[C@H](NC(=O)OCC(C)(C)Sc1cccc(Cl)c1)C(=O)N[C@@H](C[C@@H]1CCNC1=O)C(O)S(=O)(=O)O (stereo partly drawn) [Compound D7d] is less than 700 nM?
TRUE

Is it true that IC50 reported for CC(C)C[C@H](NC(=O)OC[C@@H]1C[C@H]1C1CCC(F)(F)CC1)C(=O)N[C@@H](C[C@H]1CCNC1=O)C(O)S(=O)(=O)O (stereo partly drawn) [Compound C17d] is less than 700 nM?
FALSE

Is it true that IC50 reported for CC(C)C[C@H](NC(=O)OC[C@@H]1C[C@H]1c1ccc(Cl)cc1)C(=O)N[C@H](C=O)C[C@H]1CCNC1=O [Compound C8c] is less than 700 nM?
FALSE

----------
Would you kindly list EC50 for each of these compounds?
# target.under.test: UniProt A0A097I315
# assay.summary: cell-based
# stated.conditions: Cell-based assay (EC50)
Give bare numbers, in nM.

Quick batch: EC50 for everything below.
1. COc1ccc([C@@H]2C[C@H]2COC(=O)N[C@@H](CC(C)C)C(=O)N[C@H](C=O)C[C@H]2CCNC2=O)cc1 [Compound C10c]
2. COc1ccccc1[C@@H]1C[C@@H]1COC(=O)N[C@@H](CC(C)C)C(=O)N[C@H](C=O)C[C@H]1CCNC1=O [Compound C12c]
3. COc1cccc([C@@H]2C[C@H]2COC(=O)N[C@@H](CC(C)C)C(=O)N[C@@H](C[C@H]2CCNC2=O)C(O)S(=O)(=O)O)c1 (stereo partly drawn) [Compound C9d]

[3650, 880, 2050]

----------
# target.under.test: FMDV 3Cpro (Foot-and-mouth disease virus A, UniProt A0A097I315)
# assay.summary: cell-based
# stated.conditions: Cell-based assay (EC50)
Would you kindly list pEC50 for each of these compounds?
Give bare numbers, as −log10 of the molar value.

| compound | target.under.test | value.type | value.measured |
| --- | --- | --- | --- |
| COc1ccccc1[C@@H]1C[C@H]1COC(=O)N[C@@H](CC(C)C)C(=O)N[C@H](C=O)C[C@H]1CCNC1=O [Compound C11c] | FMDV 3Cpro (Foot-and-mouth disease virus A, UniProt A0A097I315) | pEC50 | 5.97 |
| COc1ccc([C@@H]2C[C@H]2COC(=O)N[C@@H](CC(C)C)C(=O)N[C@@H](C[C@H]2CCNC2=O)C(O)S(=O)(=O)O)cc1 (stereo partly shown) [Compound C10d] | FMDV 3Cpro (Foot-and-mouth disease virus A, UniProt A0A097I315) | pEC50 | 5.55 |
| CC(C)C[C@H](NC(=O)OCC(C)(C)Oc1ccc(Cl)cc1)C(=O)N[C@H](C=O)C[C@@H]1CCNC1=O [Compound D11c] | FMDV 3Cpro (Foot-and-mouth disease virus A, UniProt A0A097I315) | pEC50 | 6.19 |
| [2H]C([2H])(OC(=O)N[C@@H](CC(C)C)C(=O)N[C@@H](C[C@@H]1CCNC1=O)C(O)S(=O)(=O)[O-])C(C)(C)Oc1ccc(Cl)cc1.[Na+] (stereo partly shown) [Compound D12d] | FMDV 3Cpro (Foot-and-mouth disease virus A, UniProt A0A097I315) | pEC50 | 6.37 |
| CC(C)C[C@H](NC(=O)OCC(C)(C)Sc1ccccc1)C(=O)N[C@@H](C[C@@H]1CCNC1=O)C(O)S(=O)(=O)O (stereo partly shown) | FMDV 3Cpro (Foot-and-mouth disease virus A, UniProt A0A097I315) | pEC50 | 5.82 |
| CC(C)C[C@H](NC(=O)OC[C@@H]1C[C@H]1C1CCCCC1)C(=O)N[C@H](C=O)C[C@H]1CCNC1=O [Compound C15c] | FMDV 3Cpro (Foot-and-mouth disease virus A, UniProt A0A097I315) | pEC50 | 6.35 |
| CC(C)C[C@H](NC(=O)OCC(C)(C)Sc1ccccc1)C(=O)N[C@H](C=O)C[C@@H]1CCNC1=O | FMDV 3Cpro (Foot-and-mouth disease virus A, UniProt A0A097I315) | pEC50 | 5.73 |
| CCC[C@@H]1C[C@H]1COC(=O)N[C@@H](CC(C)C)C(=O)N[C@H](C=O)C[C@H]1CCNC1=O [Compound C13c] | FMDV 3Cpro (Foot-and-mouth disease virus A, UniProt A0A097I315) | pEC50 | 5.53 |

Quick batch: pEC50 for everything below.
1. CC(C)C[C@H](NC(=O)OCC(C)(C)Sc1ccccc1)C(=O)N[C@@H](C[C@@H]1CCNC1=O)C(=O)C(=O)NC1CC1
2. CC(C)C[C@H](NC(=O)OCC(C)(C)Oc1ccc(F)cc1)C(=O)N[C@H](C=O)C[C@@H]1CCNC1=O [Compound D15c]
3. CC(C)C[C@H](NC(=O)OCC(C)(C)Oc1cccc(F)c1)C(=O)N[C@@H](C[C@@H]1CCNC1=O)C(O)S(=O)(=O)O (stereo partly shown) [Compound D16d]
4. CC(C)C[C@H](NC(=O)OCC(C)(C)Oc1ccc(Cl)cc1)C(=O)N[C@@H](C[C@@H]1CCNC1=O)C(O)S(=O)(=O)O (stereo partly shown) [Compound D11d]

1. 5.30
2. 5.28
3. 5.30
4. 6.01

Would you mind telling me what pEC50 value was observed for CC(C)C[C@H](NC(=O)OCc1ccccc1)C(=O)N[C@H](C=O)C[C@@H]1CCNC1=O ?
5.18

----------
Would you kindly list IC50 for each of these compounds?
# target.under.test: FMDV 3Cpro (Foot-and-mouth disease virus A)
# assay.summary: biochemical
# stated.conditions: FRET assay (IC50)
One number for each entry, in nM.

| compound | IC50 [nM] |
| --- | --- |
| CC(C)C[C@H](NC(=O)OC[C@@H]1C[C@H]1c1ccc(F)cc1)C(=O)N[C@@H](C[C@H]1CCNC1=O)C(O)S(=O)(=O)O (stereo partly drawn) | 750 |
| CC(C)C[C@H](NC(=O)OCC(C)(C)Sc1cccc(Cl)c1)C(=O)N[C@H](C=O)C[C@@H]1CCNC1=O | 1500 |
| [2H]C([2H])(OC(=O)N[C@@H](CC(C)C)C(=O)N[C@H](C=O)C[C@@H]1CCNC1=O)C(C)(C)Sc1ccccc1 | 1520 |
| CC(C)C[C@H](NC(=O)OC[C@H]1[C@H](Cc2ccccc2)C1(F)F)C(=O)N[C@@H](C[C@H]1CCNC1=O)C(O)S(=O)(=O)O (stereo partly drawn) | 1350 |

Next item in the queue.
Would you mind telling me what IC50 value was observed for CC(C)C[C@H](NC(=O)OCC(C)(C)[S+]([O-])c1ccccc1)C(=O)N[C@@H](C[C@@H]1CCNC1=O)C(O)S(=O)(=O)O (stereo partly drawn) ?
1050

----------
# target.under.test: FMDV 3Cpro (Foot-and-mouth disease virus A, UniProt A0A097I315)
# assay.summary: cell-based
# stated.conditions: Cell-based assay (EC50)
value.type: EC50 (µM)
Give bare numbers, in µM.

Use these answered entries as a reference point.
| molecule | EC50, µM |
| --- | --- |
| CC(C)C[C@H](NC(=O)OCC(C)(C)Sc1ccc(F)cc1)C(=O)N[C@@H](C[C@@H]1CCNC1=O)C(O)S(=O)(=O)O (stereo partly drawn) [Compound D6d] | 5.85 |
| CC(C)C[C@H](NC(=O)OC[C@@H]1C[C@H]1Cc1ccccc1)C(=O)N[C@@H](C[C@H]1CCNC1=O)C(O)S(=O)(=O)O (stereo partly drawn) [Compound C3d] | 4.02 |
| CCC[C@@H]1C[C@@H]1COC(=O)N[C@@H](CC(C)C)C(=O)N[C@@H](C[C@H]1CCNC1=O)C(O)S(=O)(=O)O (stereo partly drawn) [Compound C14d] | 6.3 |
| CC(C)C[C@H](NC(=O)OCc1ccccc1)C(=O)N[C@@H](C[C@@H]1CCNC1=O)C(=O)c1ncco1 [Compound E8a] | 8.2 |

Next item in the queue.
Would you mind telling me what EC50 value was observed for CC(C)C[C@H](NC(=O)[C@H](Cc1cccc2ccccc12)NC(=O)OCc1ccccc1)C(=O)N[C@H](C=O)C[C@@H]1CCNC1=O [Compound E1] ?
0.11
